- assayedTarget: Nuclear factor erythroid 2-related factor 2 (Homo sapiens) (UniProt Q16236)
- Sequence (whole entry): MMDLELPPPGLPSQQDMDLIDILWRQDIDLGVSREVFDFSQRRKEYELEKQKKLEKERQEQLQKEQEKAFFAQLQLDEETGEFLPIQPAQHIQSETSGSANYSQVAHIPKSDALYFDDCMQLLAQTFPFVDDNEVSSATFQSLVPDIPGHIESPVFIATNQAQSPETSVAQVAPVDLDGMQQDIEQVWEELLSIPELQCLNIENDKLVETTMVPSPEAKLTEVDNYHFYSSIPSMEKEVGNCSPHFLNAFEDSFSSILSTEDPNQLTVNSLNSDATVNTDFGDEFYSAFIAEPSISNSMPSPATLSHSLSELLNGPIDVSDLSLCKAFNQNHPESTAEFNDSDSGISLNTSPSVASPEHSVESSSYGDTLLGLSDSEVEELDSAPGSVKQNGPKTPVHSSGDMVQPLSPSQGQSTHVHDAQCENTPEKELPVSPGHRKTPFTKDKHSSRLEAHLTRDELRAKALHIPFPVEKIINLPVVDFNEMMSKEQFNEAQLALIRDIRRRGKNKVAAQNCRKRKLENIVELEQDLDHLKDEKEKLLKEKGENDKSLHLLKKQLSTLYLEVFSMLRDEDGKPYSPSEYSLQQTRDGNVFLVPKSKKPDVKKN
- assayComment: Activation of Nrf2 in human HSC3-ARE9 cells assessed as increase of ARE-mediated luciferase expression at 50 uM after 24 hrs relative to control
- Type: cell-based
In plain terms, low fold change (FC), meaning strictly below 1, gives Satisfied, and everything else gives Not satisfied.

State whether 1 exceeds fold change (FC) recorded for O=C(COc1ccc2oc(=O)ccc2c1)c1ccc2ccccc2c1 .
Satisfied

State whether 1 exceeds fold change (FC) recorded for COc1ccc(C(=O)COc2ccc3ccc(=O)oc3c2)cc1 .
Not satisfied

State whether 1 exceeds fold change (FC) recorded for CC(=O)COc1ccc2oc(=O)ccc2c1 .
Not satisfied

State whether 1 exceeds fold change (FC) recorded for COc1ccc(NC(=O)COc2cc3ccccc3oc2=O)cc1 .
Satisfied

State whether 1 exceeds fold change (FC) recorded for O=C(COc1cc(=O)oc2ccccc12)Nc1ccc2ccccc2c1 .
Not satisfied

State whether 1 exceeds fold change (FC) recorded for COc1ccc(/C(COc2cc(=O)oc3ccccc23)=N/O)cc1 .
Not satisfied

====

- assayComment: Antioxidant activity assessed as DPPH radical scavenging activity
- Assay type: physicochemical
pEC50: −log10 of the molar value.
quantityName: pEC50

Sample O=c1oc2ccccc2cc1OC/C(=N\O)c1ccccc1 — what was its pEC50?
< 3.40

Sample O=c1ccc2ccc(O)cc2o1 — what was its pEC50?
< 3.40

Sample CC(C)(C)c1cc(O)ccc1O — what was its pEC50?
4.24

Sample O=c1ccc2cc(OC/C(=N\O)c3ccccc3)ccc2o1 — what was its pEC50?
< 3.40

Sample O=c1oc2ccccc2cc1OC/C(=N\O)c1ccc(F)cc1 — what was its pEC50?
< 3.40

Sample O=c1cc(O)c2ccccc2o1 [4-HYDROXYCOUMARINS] — what was its pEC50?
3.45

Sample O=c1oc2ccccc2cc1O [3-HYDROXYCOUMARIN] — what was its pEC50?
4.18

Sample O=c1ccc2cc(O)ccc2o1 [6-HYDROXYCOUMARIN] — what was its pEC50?
< 3.40
